biological target: Cannabinoid receptor 2 (Homo sapiens, UniProt P34972); test: Displacement of [3H]CP-55,940 from recombinant human CB2 receptor expressed in HEK cells
Sequence (P34972 whole entry): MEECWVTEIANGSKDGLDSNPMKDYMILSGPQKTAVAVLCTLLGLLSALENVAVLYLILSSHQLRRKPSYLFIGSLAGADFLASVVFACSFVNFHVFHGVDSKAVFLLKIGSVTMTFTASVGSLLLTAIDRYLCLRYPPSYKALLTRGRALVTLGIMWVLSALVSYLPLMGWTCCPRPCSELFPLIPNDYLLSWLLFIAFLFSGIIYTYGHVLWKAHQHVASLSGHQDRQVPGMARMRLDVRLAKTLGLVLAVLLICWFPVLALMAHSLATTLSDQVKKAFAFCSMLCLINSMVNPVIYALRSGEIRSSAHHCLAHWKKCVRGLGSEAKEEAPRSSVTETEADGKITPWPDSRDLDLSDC
Class assignment keyed on Ki, ranges label 0 = under 20 nM, label 1 = from 20 nM up to 100 nM, label 2 = 100 nM and over

{"Structure Smiles String": "CCc1c(C(=O)NC2CCCCC2)nn(-c2ccc(Cl)cc2Cl)c1-n1cccc1", "Target Or System": "Cannabinoid receptor 2 (Homo sapiens, UniProt P34972)", "Category": "label 0"}

Sort into band: CCc1c(C(=O)NCc2ccc(Cl)c(Cl)c2)nn(-c2ccc(Cl)c(Cl)c2)c1-n1cccc1 label 1

Which class holds Cc1c(C(=O)NCc2ccc(Cl)c(Cl)c2)nn(-c2ccc(Cl)c(Cl)c2)c1-n1cccc1Cl ? label 1

Which class is correct for the following molecule? Cc1c(C(=O)NC2CCCCC2)nn(-c2ccc(Cl)c(Cl)c2)c1-n1cccc1Cl label 0

From: ChEMBL document CHEMBL1909537
